test system: MARK4; conditions: concentration: 1 μM, replicates: in singlicate; n = 1;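 further: KINOMEscan kinase panel screen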
METRIC NAME: %Inh (%)
Could you give me the number in %? Just the number is fine.

stdin: GET %Inh | system: MARK4 | item: "CN1c2ccc(NCc3ccc(F)cc3)cc2-c2c(cnn2C)S1(=O)=O"
stdout: 13

stdin: GET %Inh | system: MARK4 | item: Cc1nnc(-c2ccc3occ(-c4ccc(C(C)O)cc4)c3c2)o1 (centres unmarked)
stdout: 8

stdin: GET %Inh | system: MARK4 | item: "COc1ccc(Nc2ncc(C#N)c(Nc3ccccc3C(N)=O)n2)cc1N1CCN(C)CC1.Cl"
stdout: 98.7

stdin: GET %Inh | system: MARK4 | item: "O=C(Nc1cccc(-c2nn3ncccc3c2-c2ccnc(Nc3cccc(C(F)(F)F)c3)n2)c1)c1c(F)cccc1F"
stdout: 0

stdin: GET %Inh | system: MARK4 | item: "Fc1ccc(-c2nn3c(OCC(F)(F)F)cccc3c2-c2ccncc2)cc1"
stdout: 0

stdin: GET %Inh | system: MARK4 | item: "CCCCCc1nc2c(N)ncnc2n1CCCCC"
stdout: 31

stdin: GET %Inh | system: MARK4 | item: "[2H]C([2H])(c1cccc(C(F)(F)F)c1C)n1ccn2c(=O)nc(N3CCOCC3)cc12"
stdout: 2

stdin: GET %Inh | system: MARK4 | item: "NS(=O)(=O)CCc1cccc(Nc2nccc(-c3c(-c4cccc(NC(=O)c5c(F)cccc5F)c4)nn4ccccc34)n2)c1"
stdout: 26

---

system: FLT3-autoinhibited; conditions: concentration: 1 μM, replicates: in singlicate; n = 1
METRIC NAME: %Inh (%)
Could you give me the number in %? Just the number is fine.

stdin: GET %Inh | system: FLT3-autoinhibited | item: "O=c1cc(N2CCOCC2)nc2n(Cc3cccc(F)c3)ccn12"
stdout: 0

stdin: GET %Inh | system: FLT3-autoinhibited | item: Cc1c(Cn2c(C)nn3c(=O)cc(N4CCOC(C)C4)nc23)cccc1C(F)(F)F (stereo not shown)
stdout: 3

stdin: GET %Inh | system: FLT3-autoinhibited | item: "COc1cc2ncn(-c3cc(OCc4sccc4Cl)c(C(N)=O)s3)c2cc1OC"
stdout: 0

stdin: GET %Inh | system: FLT3-autoinhibited | item: "Cc1c2ccc(N(C)c3ccnc(Nc4cccc(S(N)(=O)=O)c4)n3)cc2nn1Cc1ccccc1.Cl.Cl"
stdout: 29

stdin: GET %Inh | system: FLT3-autoinhibited | item: "N#Cc1c(N2CCOCC2)sc(-c2ccn[nH]2)c1-c1ccc(Cl)cc1"
stdout: 12

stdin: GET %Inh | system: FLT3-autoinhibited | item: "CCc1ccnc(/C=C/c2n[nH]c3cc(Sc4ccccc4C(=O)NC)ccc23)c1"
stdout: 7

stdin: GET %Inh | system: FLT3-autoinhibited | item: "O=C(c1ccc(-c2cc(-c3c[nH]nc3-c3ccccn3)ccn2)cc1)N1CCOCC1"
stdout: 0

---

test system: RET; conditions: concentration: 1 μM, replicates: in singlicate; n = 1
METRIC NAME: %Inh (%)
Could you give me the number in %? Just the number is fine.

stdin: Indicate its recorded %Inh; the molecule in question is "O=C(NCCNc1ccnc(Nc2ccc(F)cc2)n1)c1cc2ccccc2s1"
stdout: 0

stdin: Indicate its recorded %Inh; the molecule in question is "NS(=O)(=O)CCc1cccc(Nc2nccc(-c3c(-c4cccc(NC(=O)c5c(F)cccc5F)c4)nn4ccccc34)n2)c1"
stdout: 99.9

stdin: Indicate its recorded %Inh; the molecule in question is "NS(=O)(=O)c1cccc(-c2ccc3ncc(N4CCOCC4)nc3c2)c1"
stdout: 0

stdin: Indicate its recorded %Inh; the molecule in question is "O=C(NCCNc1ccnc(Nc2ccc(F)cc2)n1)Nc1ccccc1F"
stdout: 5

stdin: Indicate its recorded %Inh; the molecule in question is "O=c1cc(N2CCOCC2)nc2n(Cc3cccc(F)c3)ccn12"
stdout: 31

stdin: Indicate its recorded %Inh; the molecule in question is "Cc1ccc(NC(=O)c2ccnc(N3CCN(C)CC3)c2)cc1-c1ccc(C(=O)NCC2CC2)cc1"
stdout: 0

stdin: Indicate its recorded %Inh; the molecule in question is "CCn1cnc2c(N)ncnc21"
stdout: 0

stdin: Indicate its recorded %Inh; the molecule in question is "CN(C1=C(c2ccccc2)C(=O)NC1=O)c1ccccc1"
stdout: 0

stdin: Indicate its recorded %Inh; the molecule in question is "O=c1cc(N2CCOCC2)nc2n(Cc3cccc4ccccc34)ccn12"
stdout: 80

stdin: Indicate its recorded %Inh; the molecule in question is "CN1c2ccc(NCc3ccc(F)cc3)cc2-c2c(cnn2C)S1(=O)=O"
stdout: 0

stdin: Indicate its recorded %Inh; the molecule in question is "O=c1cc(N2CCOCC2)nc2n(Cc3cccc(Cl)c3Cl)c(C3CC3)nn12"
stdout: 8

stdin: Indicate its recorded %Inh; the molecule in question is "[2H]C([2H])(c1cccc(C(F)(F)F)c1C)n1ccn2c(=O)nc(N3CCOCC3)cc12"
stdout: 14

stdin: Indicate its recorded %Inh; the molecule in question is NCC(NC(=O)c1cc(-c2cn[nH]c2)c(-c2ccnc3[nH]ccc23)s1)c1ccccc1.O=C(O)C(F)(F)F.O=C(O)C(F)(F)F (stereo not drawn)
stdout: 18

stdin: Indicate its recorded %Inh; the molecule in question is "CNc1ncnc2[nH]ncc12"
stdout: 0

stdin: Indicate its recorded %Inh; the molecule in question is "O=C(Nc1n[nH]c2cc(-c3cccc(F)c3)ccc12)C1CC1"
stdout: 0

stdin: Indicate its recorded %Inh; the molecule in question is "c1ccc(-c2n[nH]cc2-c2ccnc3ccccc23)nc1"
stdout: 0

stdin: Indicate its recorded %Inh; the molecule in question is "Cc1cccc(-c2nc(Nc3ccc4ncsc4c3)c3ccccc3n2)n1"
stdout: 0

stdin: Indicate its recorded %Inh; the molecule in question is "O=C1Cc2cc(Nc3nc(NCc4cccc(S(=O)(=O)C(F)(F)F)c4)ncc3C(F)(F)F)ccc2N1"
stdout: 5
